- assay: Cytotoxicity, MTT assay, HUVEC
- Type: cell-based
- conditionInfo: human, HUVEC (human umbilical vein endothelial cells), read-out: HUVEC Cytotox (IC50)
Record form. Attribute: IC50. Fill in for each entry.

What the record says about CC(=O)N[C@H]1CSSC[C@@H](C(N)=O)NC(=O)[C@H](C(C)C)NC(=O)[C@H](C)NC(=O)[C@H](Cc2c[nH]cn2)NC1=O : IC50 is > 100 µM

Entry under test: CC(=O)N[C@H]1CSSC[C@@H](C(N)=O)NC(=O)[C@H](C(C)C)NC(=O)CNC(=O)[C@H](Cc2c[nH]cn2)NC1=O [N—Ac—CHGVC—NH2, reference compound] . Its IC50 was > 100 µM
